Tested on: HEK-293T
assayProcedure: Multiplex assay against HEK293T
Format: toxicity, cell-based
recordedConditions: human, 12 h, 10 µM, compound concentration 10 uM
propertyLabel: Population Tubulin-Different-Phenotype (%)
Numbers only, in %.

These solved cases illustrate the format of a correct answer.
[
  {
    "compound": "CN(C)CCCc1cc(C(=O)Nc2ccc(-c3ccncc3)cc2)ccc1O.Cl.Cl",
    "u": "%",
    "reportedValue": 33
  },
  {
    "compound": "CN1CCC(C(=O)c2cccc(NC(=O)c3c(F)cc(F)cc3F)n2)CC1",
    "u": "%",
    "reportedValue": 50
  },
  {
    "compound": "CCC(=O)N1CCN(c2ccc(-n3c(=O)ccc4cnc5ccc(-c6cnc7ccccc7c6)cc5c43)cc2C(F)(F)F)CC1 [TORIN1]",
    "u": "%",
    "reportedValue": 37
  },
  {
    "compound": "S=C(NCCCc1c[nH]cn1)NCCCN(Cc1ccc(Cl)c(Cl)c1)c1ccc(Br)cn1",
    "u": "%",
    "reportedValue": 78
  },
  {
    "compound": "O=C(O)Cc1ccccc1Nc1c(Cl)cccc1Cl [DICLOFENAC]",
    "u": "%",
    "reportedValue": 35
  }
]

// sample `CCCCC(=O)N(Cc1ccc(-c2ccccc2-c2nnn[nH]2)cc1)[C@H](C(=O)O)C(C)C` , its Population Tubulin-Different-Phenotype (%) was 19
